Recorded measurements of residual activity, one per entry
biological target: ADRBK1 (human) (UniProt P25098); assay: radiometric filter-binding kinase assay, Kinase HotSpot; conditions: compound 0.5 µM; ATP 10 µM
Sequence (P25098 whole entry, looked up): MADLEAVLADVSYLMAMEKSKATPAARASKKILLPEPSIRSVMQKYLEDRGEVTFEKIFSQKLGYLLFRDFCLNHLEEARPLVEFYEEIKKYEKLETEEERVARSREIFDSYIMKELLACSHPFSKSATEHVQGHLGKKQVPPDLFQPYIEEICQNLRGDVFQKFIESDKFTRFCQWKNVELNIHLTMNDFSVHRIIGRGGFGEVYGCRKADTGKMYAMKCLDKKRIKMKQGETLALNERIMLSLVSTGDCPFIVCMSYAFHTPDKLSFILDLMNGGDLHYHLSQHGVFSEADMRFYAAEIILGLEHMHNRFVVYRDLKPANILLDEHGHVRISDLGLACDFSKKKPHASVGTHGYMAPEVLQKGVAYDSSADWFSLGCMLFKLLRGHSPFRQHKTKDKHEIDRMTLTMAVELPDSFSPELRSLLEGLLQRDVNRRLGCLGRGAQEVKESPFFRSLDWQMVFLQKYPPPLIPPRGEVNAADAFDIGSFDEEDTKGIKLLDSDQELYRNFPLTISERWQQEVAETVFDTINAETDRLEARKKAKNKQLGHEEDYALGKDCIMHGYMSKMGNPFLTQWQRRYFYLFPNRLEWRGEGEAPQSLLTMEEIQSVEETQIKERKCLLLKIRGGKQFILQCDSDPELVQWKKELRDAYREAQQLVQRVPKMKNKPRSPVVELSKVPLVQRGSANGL
Lab book: enter the figure in %, no units written.

Record excerpt, results attached:
O=C1Nc2ccccc2/C1=C1\Nc2ccccc2\C1=N/O ... 89.5
O=C(Nc1cccc(Nc2cc(Nc3cccc(C(F)(F)F)c3)ncn2)c1)C1CC1 ... 97.9
CN(C)C[C@H]1CCn2c(c(C3=C(c4cn(C)c5ccccc45)C(=O)NC3=O)c3ccccc32)C1 ... 103
Nc1nnc2[nH]c3ccccc3nc1-2 ... 101
Cc1nc2cc3nc(-c4cccs4)cnc3cc2n1C ... 83.7

q: Record request: residual activity value, item Oc1ccc(Nc2nc(-c3ccc(Cl)cc3)cs2)cc1
a: 100

q: // lookup residual activity for CC(C)c1nn(-c2c(Cl)cccc2Cl)c2nc(Cc3ccc(OCCO)cc3)nc(O)c12
a: 94.8

q: I am curious: what residual activity value has been reported for COc1ccc(OC)c2c(=S)c3ccccc3[nH]c12 ?
a: 92.5

The reported numbers originate from the kinase profiling compilation of Christmann-Franck et al. (2016).
